ASSAY_METHOD_TEXT: Compound cytotoxicity, cell viability staining with Alamar Blue
Type: cell-based
DETAILS: Chinese hamster, CHO cells (Chinese hamster ovary), positive control
ENDPOINT: CC50

Suppose we examine the compound CC(C)(C)c1ccc(C(O)CCCN2CCC(C(O)(c3ccccc3)c3ccccc3)CC2)cc1 (stereo not shown) ; what CC50 value has been reported?
4.3 to 6.5 µM

###

ASSAY_METHOD_TEXT: Compound cytotoxicity, cell viability staining with Alamar Blue
Assay type: cell-based
DETAILS: human, Hep 2 cells (laryngeal carcinoma), positive control
ENDPOINT: CC50

Suppose we examine the compound CC(C)(C)c1ccc(C(O)CCCN2CCC(C(O)(c3ccccc3)c3ccccc3)CC2)cc1 (stereo not shown) [Terfenadine] ; what CC50 value has been reported?
3 to 5 µM
